target: T1, human PD-L1-Fc (SinoBiological) (human, UniProt Q9NZQ7 19-239); assay: BLI (Octet RED96), VHH on Penta-HIS sensor, human PD-L1-Fc in solution
T1 construct: Bought; not shown: Fc of a bought fusion protein
T1 sequence (Q9NZQ7 19-239 limits assumed): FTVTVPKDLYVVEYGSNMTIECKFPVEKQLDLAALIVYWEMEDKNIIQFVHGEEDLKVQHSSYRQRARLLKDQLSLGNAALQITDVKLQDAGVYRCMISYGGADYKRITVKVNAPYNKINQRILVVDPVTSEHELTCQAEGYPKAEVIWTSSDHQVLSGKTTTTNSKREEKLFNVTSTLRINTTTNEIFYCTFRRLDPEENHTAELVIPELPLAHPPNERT
MEASURED ENDPOINT: Kd (nM)
Give just the number in nM; leave the unit off.

2LIG3 VHH-(His)6 (pHEN6C-PelB-PD-L1 VHH-(His)6) (VHH) VHH: QVQLQESGGGLVQAGGSLRLSCTASGTIFSINHMDWFRQAPGKQRELVALITSDGFPTYADSAKGRFTISRDNTKKTVSLQMNSLKPEDTAVYYCHVSSGVYNYWGQGTQVTVSS | 1.19
2LIG97 VHH-(His)6 (pHEN6C-PelB-PD-L1 VHH-(His)6) (VHH) VHH: QVQLQESGGGLVQAGESLRLSCTASGTIFSINRMDWFRQAPGKQRELVALITSDGTPTYADSAKGRFTISRDNTKKTVSLQMNSLKPEDTAVYYCHVSSGVYNYWGQGTQVTVSS | 4.35
3LIG8 VHH-(His)6 (pHEN6C-PelB-PD-L1 VHH-(His)6) (VHH) VHH: QVQLQESGGGLVQPGGSLRLSCTASGTIFSINRMDWFRQAPGKQRELVALITSDGTPTYADSAKGRFTISRDNTKKTVSLQMNSLKPEDTAVYYCHVSSGVYNYWGQGTQVTVSS | 8.77

Pending binder:
Kd measured on 2LIG189 VHH-(His)6 (pHEN6C-PelB-PD-L1 VHH-(His)6) (VHH) VHH: QVQLQESGGGLVQAGGSLRLSCAASGKIFSGNDMGWYRQAPGKQRELVGIITSGGITDYADAVKGRFTISRDNAKNMMYLQMNSLKPEDTAVYYCNMRDRTIWWGQGTQVTVSS = 3.03
